Source of measurements: paper PMC2756588

- ASSAYED_SYSTEM: T1, Cyk3, Q07533
- T1 sequence (Q07533 1-83, looked up): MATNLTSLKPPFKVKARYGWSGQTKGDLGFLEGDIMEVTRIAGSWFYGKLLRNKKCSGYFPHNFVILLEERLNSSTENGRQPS
- PROTOCOL_DESCRIPTION: SPOT array
- CONDITION_SET: median of control spots 1451
Known SPOT intensity of a selection of binders
MEASURED_METRIC: SPOT intensity

1) LKVTPGRRAPTISKI; 1
2) EVTPKVPERPSRRKT; 1
3) RSLRKRPTSPSISGS; 1
